# System: HepG2 cells
# ASSAY_OVERVIEW: HepG2 cytotoxicity assay
# RECORDED_CONDITIONS: HepG2 values of the three screens unified
PARAMETER: Unified cytotox (µM)

MOLECULE	PARAMETER	VALUE_MEASURED
COc1ccc(C[C@H]2NC[C@H](O)[C@H]2OC(C)=O)cc1 [TCMDC-125504]	Unified cytotox	1.24
Nc1nc(N)c2c(ccc3c2ccn3Cc2ccccn2)n1 [TCMDC-137980]	Unified cytotox	0.00767
COc1ccc2ncc(Cl)c(NCC3(O)CCC(NCc4ccc5c(n4)NC(=O)CS5)CC3)c2n1.Cl (centres unmarked) [TCMDC-134671]	Unified cytotox	12.59
Cc1[nH]c(C)c(-c2ccc(Oc3ccc(Cl)cc3)cc2)c(=O)c1C [TCMDC-137378]	Unified cytotox	8.61
Cc1[nH]cc(Br)c(=O)c1-c1ccc(Oc2ccccc2)cc1 [TCMDC-136196]	Unified cytotox	100.00
O=C(Nc1nc(-c2ccccn2)cs1)c1ccc(S(=O)(=O)N2CCc3ccccc32)cc1 [TCMDC-125432]	Unified cytotox	16.72
Cc1[nH]c(C)c(-c2ccc(-c3cccc(C(F)(F)F)c3)nc2)c(=O)c1Br [TCMDC-135911]	Unified cytotox	100.00
Cc1[nH]c(C)c(-c2ccc(-c3ccc(Cl)cc3)nc2)c(=O)c1Br [TCMDC-136159]	Unified cytotox	100.00
